// provenance: ChEMBL document CHEMBL1240519

Study system: Serine/threonine-protein kinase pim-2 (Homo sapiens)
Sequence (Q9P1W9 whole entry, looked up, the tested form may be a part): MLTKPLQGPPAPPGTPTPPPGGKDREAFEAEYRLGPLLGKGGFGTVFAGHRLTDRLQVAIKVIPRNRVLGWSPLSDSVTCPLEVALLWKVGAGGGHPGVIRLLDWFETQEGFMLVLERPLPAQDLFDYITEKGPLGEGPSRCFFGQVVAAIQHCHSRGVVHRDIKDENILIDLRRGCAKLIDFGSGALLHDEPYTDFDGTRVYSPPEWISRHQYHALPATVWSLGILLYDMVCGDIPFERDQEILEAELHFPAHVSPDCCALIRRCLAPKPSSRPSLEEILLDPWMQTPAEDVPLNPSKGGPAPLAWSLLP
Assay explanation: Inhibition of human GST fused Pim2 expressed in Escherichia coli assessed as residual activity at 1 uM after 30 mins
Quantity name: Activity (%)

Please review the entries below; each comes with its answer.
>  <Sample smiles>
CCc1cccc2c1[nH]c1c2ccc2c(C=O)c[nH]c21

>  <Study system>
Serine/threonine-protein kinase pim-2 (Homo sapiens)

>  <Experimental value>
66

$$$$
>  <Sample smiles>
O=Cc1c[nH]c2c1ccc1c2[nH]c2cccc(Br)c21

>  <Study system>
Serine/threonine-protein kinase pim-2 (Homo sapiens)

>  <Experimental value>
12

$$$$
>  <Sample smiles>
O=Cc1c[nH]c2c1ccc1c3cc([N+](=O)[O-])ccc3[nH]c12

>  <Study system>
Serine/threonine-protein kinase pim-2 (Homo sapiens)

>  <Experimental value>
82

$$$$
>  <Sample smiles>
N#Cc1ccc2[nH]c3c(ccc4c(C=O)c[nH]c43)c2c1

>  <Study system>
Serine/threonine-protein kinase pim-2 (Homo sapiens)

>  <Experimental value>
84

$$$$

I. Cc1ccc2c(c1)[nH]c1c2ccc2c(C=O)c[nH]c21
II. COC(=O)c1cccc2c1[nH]c1c2ccc2c(C=O)c[nH]c21
III. O=Cc1c[nH]c2c1ccc1c3cccc(F)c3[nH]c12
Order the records by Activity, with each subsequent value no larger than the one before. Give the order by naming the labels one after another as requested.
I, III, II

1. O=Cc1c[nH]c2c1ccc1c3cc(F)ccc3[nH]c12
2. O=Cc1c[nH]c2c1ccc1c3ccc(Br)cc3[nH]c12
Field: entry with larger Activity (options 1 / 2 ). Answer format: the label of the selected item.
1
(1: 84%, 2: 37%)
